# target-entity: SARS-CoV-2 Spike (S) protein, wild type (SARS-CoV-2, UniProt P0DTC2 14-1208)
# measurement-protocol: HT-SPR Carterra LSA; mAb coupled to chip, Spike in solution; 1:1 Langmuir fit
measured-parameter: kon (M⁻¹ s⁻¹)
# value in M⁻¹ s⁻¹; strip the unit string

Reported kon ( anti-SARS-CoV-2 antibody 923 (antibody, V domains shown) VH: EVQLVESGGGVVRPGGSLRLSCAASGFIFDDYDMTWVRQAPGKGLEWVSGISWNGGNTGYADSVKGRFTISRDNAKNSLYLQMNSLRAEDTALYHCAVIMSPIPRYSGYDWAGGAFDIWGQGTMVTVSS VL: SSELTQDPAVSVALGQTVRITCQGDSLRSYYASWYQQKPGQVPILVIYDKNNRPSGIPDRFSGSSSGNTASLTITGAQAEDEADYYCNSRDSSGNAVVFGGGTKLTVLG ) = 653000

Reported kon ( anti-SARS-CoV-2 antibody 851 (antibody, V domains shown) VH: QITLKESGPTLVKPTQTLTLTCTFSGFSLSTNGVGMGWIRQPPGKALEWLALIYWDDDQFYSPSLKSRLTITRDTSKNQVVLTMTNMDPVDTATYYCAQAFYESFGFYSWGQGTLVTVSS VL: NFMLTQPHSVSESPGKTVIISCTRSIGSIASNYVQWYQQRPGSAPTIVVFEDNERPSGVPDRFSGSIDRSSNSASLTISGLKTEDEADYYCQSYDGSSELVFGGGTKLTVLG ) = 6960

Reported kon ( anti-SARS-CoV-2 antibody 1015 (antibody, V domains shown) VH: EVQLVESGGGLVQPGGSLRLSCAASGFTFSSYWMHWVRQAPGKGLVWVSHINSDGSSTSYADSVKGRFTISRDNAKNTLYLQMNSLRAEDTAVYYCARGLRYFDLDVWGQGTTVTVSS VL: QSVLTQPPSVSEAPRQRVTISCSGSSSNIGNNAVNWYQQLPGKAPKLLIFYDDLLPSGVSDRFSGSKSGTSASLAISGLQSEDEADYYCAAWDDSLNGGVFGGGTKLTVLG ) = 500000
